B1: glmS ribozyme (parent)
chain: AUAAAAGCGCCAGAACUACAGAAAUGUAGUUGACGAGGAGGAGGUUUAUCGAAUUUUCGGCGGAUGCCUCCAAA

Variants of: B1
Test: self-cleavage kobs at 10000 uM GlcN6P; higher = faster cleavage; RNA array
Conditions: with glucosamine-6-phosphate
Variants at the floor of the assay were thinned out.
measured quantity: self-cleavage kobs at 10000 uM GlcN6P (s⁻¹)
Just the number please, in s⁻¹, no unit attached.

Reported self-cleavage kobs at 10000 uM GlcN6P of C16U C50A : 2.32e-05

Note to self: self-cleavage kobs at 10000 uM GlcN6P recorded for U30C A39C was 9.75e-05

For this variant ( U47A U65G ), measured self-cleavage kobs at 10000 uM GlcN6P is 0.00369

The reported value for G32A U69A in terms of self-cleavage kobs at 10000 uM GlcN6P is 7.45e-05

Query U49G C67U yields self-cleavage kobs at 10000 uM GlcN6P of 0.000292

Measured self-cleavage kobs at 10000 uM GlcN6P of U46C C67A : 0.000676

Memo: U31C C71A , reported self-cleavage kobs at 10000 uM GlcN6P: 0.00057

Record summary for G13A G29U : reported self-cleavage kobs at 10000 uM GlcN6P = 4.7e-05

// field: self-cleavage kobs at 10000 uM GlcN6P; key: U56C G66A C71U ; value = 0.000503

# self-cleavage kobs at 10000 uM GlcN6P of U31A A42G U47A = 0.00844

The value of self-cleavage kobs at 10000 uM GlcN6P measured for the variant C16U U46C U55A C70U turned out to be 0.00226

Looking up G13U C67U , I found its self-cleavage kobs at 10000 uM GlcN6P recorded as 0.000274

Quick note, self-cleavage kobs at 10000 uM GlcN6P for G37A A64G landed at 0.002

self-cleavage kobs at 10000 uM GlcN6P for U45C C68U is 0.00218

For record A39G U47A the listed self-cleavage kobs at 10000 uM GlcN6P is 0.0441

Entry A33U U54A ; self-cleavage kobs at 10000 uM GlcN6P = 0.000117

Form: variant = G13U U31A ; self-cleavage kobs at 10000 uM GlcN6P = 0.000346

Data point: G40C U46G ; self-cleavage kobs at 10000 uM GlcN6P = 0.000789

self-cleavage kobs at 10000 uM GlcN6P reading for A12G A42C U69A : 0.000102

The variant listed as G32A U57A has a reported self-cleavage kobs at 10000 uM GlcN6P of 2.89e-05

The variant listed as A15C U65A has a reported self-cleavage kobs at 10000 uM GlcN6P of 0.000807
